Molecular target: T1, human EphB6 (Homo sapiens, UniProt O15197)
T1 construct: a protein of the extracellular region of each human Eph receptor fused with the SEAP protein and the His tag; made in house; host or cells: Expi293F cells
T1 sequence (O15197 32-594 limits assumed): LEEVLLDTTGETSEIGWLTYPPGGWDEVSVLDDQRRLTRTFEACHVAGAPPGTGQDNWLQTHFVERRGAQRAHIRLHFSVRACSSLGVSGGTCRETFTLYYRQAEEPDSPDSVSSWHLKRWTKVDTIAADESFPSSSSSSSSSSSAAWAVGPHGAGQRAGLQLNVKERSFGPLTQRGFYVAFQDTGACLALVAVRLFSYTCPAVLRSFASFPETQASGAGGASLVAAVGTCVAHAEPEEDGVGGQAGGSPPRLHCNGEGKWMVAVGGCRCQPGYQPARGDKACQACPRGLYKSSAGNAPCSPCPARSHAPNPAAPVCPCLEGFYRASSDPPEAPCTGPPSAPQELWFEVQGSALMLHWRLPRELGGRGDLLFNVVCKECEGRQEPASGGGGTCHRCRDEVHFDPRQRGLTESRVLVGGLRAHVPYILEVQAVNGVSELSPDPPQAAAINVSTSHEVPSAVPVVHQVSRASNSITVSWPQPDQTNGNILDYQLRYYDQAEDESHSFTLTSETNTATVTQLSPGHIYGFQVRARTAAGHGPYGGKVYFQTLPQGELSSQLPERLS
Assay: Selectivity ELISA of humanized antibodies for human Eph receptor
Format: binding
Details: coated protein 1 nM
REPORTED_PROPERTY: hEphB6-SEAP-: absorbance at 450 nm, percentage with respect to hEphA4-SEAP-His as 100% (%)
Lab book: enter the figure in %, no units written.

query: In one line, give reported hEphB6-SEAP-: absorbance at 450 nm, percentage with respect to hEphA4-SEAP-His as 100% of the entry 143 (antibody, V domains shown, synthetic humanized antibody heavy chain variable region sequence; synthetic humanized antibody light chain variable region sequence) VH: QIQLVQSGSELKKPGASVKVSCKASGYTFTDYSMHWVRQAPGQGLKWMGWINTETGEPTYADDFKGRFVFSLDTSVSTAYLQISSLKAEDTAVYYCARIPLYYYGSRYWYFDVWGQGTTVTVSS VL: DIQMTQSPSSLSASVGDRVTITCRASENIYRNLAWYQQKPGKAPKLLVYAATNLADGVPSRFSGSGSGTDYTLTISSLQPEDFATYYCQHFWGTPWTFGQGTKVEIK .
result: 5.6

query: In one line, give reported hEphB6-SEAP-: absorbance at 450 nm, percentage with respect to hEphA4-SEAP-His as 100% of the entry 152 (antibody, V domains shown, synthetic humanized antibody heavy chain variable region sequence; synthetic humanized antibody light chain variable region sequence) VH: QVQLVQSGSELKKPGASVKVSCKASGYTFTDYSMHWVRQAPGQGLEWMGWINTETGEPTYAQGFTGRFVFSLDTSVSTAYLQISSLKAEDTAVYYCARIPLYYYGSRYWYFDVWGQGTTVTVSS VL: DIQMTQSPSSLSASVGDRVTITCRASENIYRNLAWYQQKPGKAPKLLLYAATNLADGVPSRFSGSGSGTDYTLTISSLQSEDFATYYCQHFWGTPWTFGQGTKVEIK .
result: 5.9
